All figures here come from the supplement of paper PMC12636033.

- System: 2Sb-muMax20 (muMax20 with two 1,3-bis(methyl)benzene Cys staples, A13C/A17C and Q88C/A92C, C-terminal Lys)
- TEST DESCRIPTION: PBM 8-mer E-score (E-score (rank enrichment, -0.5 to 0.5)); higher = stronger preferential binding
Whole data set: some 33,000 sequences, median “E-score (rank enrichment, -0.5 to 0.5)” near -0.0028, cut for the highest 2% near 0.23. This excerpt belongs to a sample that is enriched for the highest values.
Rule: PBM 8-mer E-score under 0.2 gives false (0), otherwise true (1).

INSERT INTO assay_data (seq_text, label) VALUES
  ('ACAACAAA', 'false (0)');

Qu. Dear colleague, could you confirm whether "CCTGCACC" has PBM 8-mer E-score at or above 0.2?
Ans. false (0)

Qu. Now the same for "ACAACCCC"
Ans. true (1)

----------
- System: 2Sb-muMax20 (muMax20 with two 1,3-bis(methyl)benzene Cys staples, A13C/A17C and Q88C/A92C, C-terminal Lys)
- TEST DESCRIPTION: PBM 8-mer E-score (E-score (rank enrichment, -0.5 to 0.5)); higher = stronger preferential binding
Over roughly 33,000 sequences, “E-score (rank enrichment, -0.5 to 0.5)” has its median near -0.0028; the highest 2% begin near 0.23. Many of the other results were omitted from the sample, so the highest values are more common in it than they were.
ENDPOINT: PBM 8-mer E-score
Answer using only a numeral; do not append any unit.

INSERT INTO measurements (seq_text, obs_value) VALUES
  ('CCGATGCC', -0.029),
  ('AGCGCCTG', -0.212),
  ('AATCCCCC', -0.219),
  ('ACGGGTAA', 0.0152),
  ('CCGTGATA', -0.132);

Qu. Would you mind telling me what PBM 8-mer E-score value was observed for "AATCCCAT" ?
Ans. 0.185

Qu. Now the same for "ACGTGAAA"
Ans. 0.238

Qu. Now the same for "CGCCCTCC"
Ans. 0.0189

Qu. Now the same for "GCCCCCCC"
Ans. -0.18

Qu. Now the same for "AACCACGG"
Ans. -0.276

Qu. Now the same for "ACGTGATG"
Ans. 0.239

Qu. Now the same for "AGCGAATC"
Ans. 0.0438

Qu. Now the same for "CATCCCCA"
Ans. 0.141

Qu. Now the same for "GTGCGAAC"
Ans. -0.083

Qu. Now the same for "AATCCCGT"
Ans. -0.000655

Qu. Now the same for "TACATCGA"
Ans. 0.106

Qu. Now the same for "ACCCCTCG"
Ans. 0.0393

Qu. Now the same for "TCCCTGCA"
Ans. 0.0481

Qu. Now the same for "ACGTGATA"
Ans. 0.244

Qu. Now the same for "GCCCCTCA"
Ans. -0.0171

Qu. Now the same for "GGAATTCC"
Ans. -0.26

Qu. Now the same for "GGATCTTA"
Ans. -0.014

----------
- Test system: 2Sb-muMax20 (muMax20 with two 1,3-bis(methyl)benzene Cys staples, A13C/A17C and Q88C/A92C, C-terminal Lys)
- TEST DESCRIPTION: PBM 8-mer E-score (E-score (rank enrichment, -0.5 to 0.5)); higher = stronger preferential binding
The full ranking holds about 33,000 sequences; the median of “E-score (rank enrichment, -0.5 to 0.5)” is about -0.0028, and the highest 2% start at about 0.23. The list comes from a sample in which the highest values are over-represented; it also holds close analogues and randomly drawn sequences.
This listing pairs sequences with measured PBM 8-mer E-score.
Answer using only a numeral; do not append any unit.

Examples with their reported PBM 8-mer E-score follow.
INSERT INTO measurements (seq_text, obs_value) VALUES
  ('ACGAGACG', 0.0104),
  ('AAACCCCC', -0.275),
  ('ATTCTGAA', 0.0149),
  ('CTACCCCC', -0.0941);

Qu. Would you mind telling me what PBM 8-mer E-score value was observed for "AGACCCCC" ?
Ans. -0.382
